System: Reticulocyte Depletion Signature (Alas2 and peripherin probes), bone marrow
Conditions: rat, in vivo
Experimental: Compound dosing was based on the acute dose LD50s recorded in published reference or literature sources. […] After determination of the MTD and FED for a compound, each compound was dissolved in a vehicle for administration on day 1 of the study (additional daily doses were stored as frozen aliquots from this initial formulation). […] Animal body weights were determined at 1 day and, where appropriate, at 4 days, before necropsy, and clinical observations were made on a daily basis. […]

compound | measured on | SPS (Bone Marrow)
Nc1nc2nc[nH]c2c(=S)[nH]1 [THIOGUANINE, 2-amino-1,7-dihydro-6H-purine-6-thione] | Reticulocyte Depletion Signature (Alas2 and peripherin probes), bone marrow | 40
COc1cccc2c1C(=O)c1c(O)c3c(c(O)c1C2=O)C[C@@](O)(C(=O)CO)C[C@@H]3O[C@H]1C[C@H](N)[C@H](O)[C@H](C)O1 | Reticulocyte Depletion Signature (Alas2 and peripherin probes), bone marrow | 0
Nc1ccn([C@@H]2O[C@H](CO)[C@@H](O)[C@@H]2O)c(=O)n1 | Reticulocyte Depletion Signature (Alas2 and peripherin probes), bone marrow | 0
Cn1cnc([N+](=O)[O-])c1Sc1ncnc2nc[nH]c12 | Reticulocyte Depletion Signature (Alas2 and peripherin probes), bone marrow | 27
CS(=O)(=O)OCCCCOS(C)(=O)=O | Reticulocyte Depletion Signature (Alas2 and peripherin probes), bone marrow | 0
